system: HEK-293T; assay: Multiplex assay against HEK293T; type: toxicity, cell-based; conditions: human, 12 h, 1 µM, compound concentration 1 uM, replicate 1
Quick rule for you: Population Pyknosed Nuclei (%) under 50% gets criterion met, anything else gets criterion not met.

Is Population Pyknosed Nuclei (%) strictly under 50% for the entry CCN1CCN(c2ccc(Nc3cc(N(C)C(=O)Nc4c(Cl)c(OC)cc(OC)c4Cl)ncn3)cc2)CC1 ? criterion met

Is Population Pyknosed Nuclei (%) strictly under 50% for the entry CCN1CCN(Cc2ccc(Nc3ncc(F)c(-c4cc(F)c5nc(C)n(C(C)C)c5c4)n3)nc2)CC1.CS(=O)(=O)O ? criterion not met

Is Population Pyknosed Nuclei (%) strictly under 50% for the entry COc1cc2ncnc(Nc3ccc(F)c(Cl)c3)c2cc1NC(=O)/C=C/CN1CCCCC1 [DACOMITINIB ANHYDROUS] ? criterion met
